The reported numbers originate from patent US20220056104A1.

Biological target: T1, Recombinant DR3-Fc (R&D Systems, cat. #943-D3) (UniProt Q93038 25-199, limits assumed)
T1 construct: dimeric MW~92 kDa; also called DR3 receptor; Fc-DR3; not shown: Fc part of the bought fusion
T1 sequence (looked up): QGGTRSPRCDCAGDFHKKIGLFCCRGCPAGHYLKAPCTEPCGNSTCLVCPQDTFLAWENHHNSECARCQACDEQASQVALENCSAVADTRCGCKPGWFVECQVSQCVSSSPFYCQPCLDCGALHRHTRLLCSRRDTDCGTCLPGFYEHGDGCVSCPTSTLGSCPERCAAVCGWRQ
Assay: ELISA, DR3-Fc immobilized
Consider the following binders; for each one, report its pEC50.
Give bare numbers, as −log10 of the molar value.

Previously resolved entries follow.
Incoming: Give the measured pEC50 of TL1W121 (His-TEV-TL1A S206E) (ligand, also called TL1W121 (S206E)) HHHHHHENLYFQGLKGQEFAPSHQQVYAPLRADGDKPRAHLTVVRQTPTQHFKNQFPALHWEHELGLAFTKNRMNYTNKFLLIPESGDYFIYSQVTFRGMTSECSEIRQAGRPNKPDSITVVITKVTDSYPEPTQLLMGTKSVCEVGENWFQPIYLGAMFSLQEGDKLMVNVSDISLVDYTKEDKTFFGAFLL .
Outgoing: 6.98

Incoming: Entry to check: TL1W115 (His-TEV-TL1A T192F) (ligand, also called TL1W115 (T192F)) HHHHHHENLYFQGLKGQEFAPSHQQVYAPLRADGDKPRAHLTVVRQTPTQHFKNQFPALHWEHELGLAFTKNRMNYTNKFLLIPESGDYFIYSQVTFRGMTSECSEIRQAGRPNKPDSITVVITKVTDSYPEPFQLLMGTKSVCEVGSNWFQPIYLGAMFSLQEGDKLMVNVSDISLVDYTKEDKTFFGAFLL
Outgoing: 7.85

Incoming: Entry to check: TL1W95 (His-TEV-TL1A Q167A) (ligand, also called TL1W95 (Q167A)) HHHHHHENLYFQGLKGQEFAPSHQQVYAPLRADGDKPRAHLTVVRQTPTQHFKNQFPALHWEHELGLAFTKNRMNYTNKFLLIPESGDYFIYSQVTFRGMTSECSEIRAAGRPNKPDSITVVITKVTDSYPEPTQLLMGTKSVCEVGSNWFQPIYLGAMFSLQEGDKLMVNVSDISLVDYTKEDKTFFGAFLL
Outgoing: 7.77

For each entry beneath this line, provide reported pEC50.
1. TL1W105 (His-TEV-TL1A T185N) (ligand, also called TL1W105 (T185N)) HHHHHHENLYFQGLKGQEFAPSHQQVYAPLRADGDKPRAHLTVVRQTPTQHFKNQFPALHWEHELGLAFTKNRMNYTNKFLLIPESGDYFIYSQVTFRGMTSECSEIRQAGRPNKPDSITVVITKVNDSYPEPTQLLMGTKSVCEVGSNWFQPIYLGAMFSLQEGDKLMVNVSDISLVDYTKEDKTFFGAFLL
2. TL1W84 (His-TEV-TL1A E120H) (ligand, also called TL1W84 (E120H)) HHHHHHENLYFQGLKGQEFAPSHQQVYAPLRADGDKPRAHLTVVRQTPTQHFKNQFPALHWHHELGLAFTKNRMNYTNKFLLIPESGDYFIYSQVTFRGMTSECSEIRQAGRPNKPDSITVVITKVTDSYPEPTQLLMGTKSVCEVGSNWFQPIYLGAMFSLQEGDKLMVNVSDISLVDYTKEDKTFFGAFLL
3. TL1W39 (His-TEV-TL1A L123G) (ligand, also called TL1W39 (L123G)) HHHHHHENLYFQGLKGQEFAPSHQQVYAPLRADGDKPRAHLTVVRQTPTQHFKNQFPALHWEHEGGLAFTKNRMNYTNKFLLIPESGDYFIYSQVTFRGMTSECSEIRQAGRPNKPDSITVVITKVTDSYPEPTQLLMGTKSVCEVGSNWFQPIYLGAMFSLQEGDKLMVNVSDISLVDYTKEDKTFFGAFLL

Outgoing:
6.75
6.74
6.73

For each entry beneath this line, provide reported pEC50.
1. TL1W81 (His-TEV-TL1A K111S) (ligand, also called TL1W81 (K111S)) HHHHHHENLYFQGLKGQEFAPSHQQVYAPLRADGDKPRAHLTVVRQTPTQHFSNQFPALHWEHELGLAFTKNRMNYTNKFLLIPESGDYFIYSQVTFRGMTSECSEIRQAGRPNKPDSITVVITKVTDSYPEPTQLLMGTKSVCEVGSNWFQPIYLGAMFSLQEGDKLMVNVSDISLVDYTKEDKTFFGAFLL
2. TL1W93 (His-TEV-TL1A M158K) (ligand, also called TL1W93 (M158K)) HHHHHHENLYFQGLKGQEFAPSHQQVYAPLRADGDKPRAHLTVVRQTPTQHFKNQFPALHWEHELGLAFTKNRMNYTNKFLLIPESGDYFIYSQVTFRGKTSECSEIRQAGRPNKPDSITVVITKVTDSYPEPTQLLMGTKSVCEVGSNWFQPIYLGAMFSLQEGDKLMVNVSDISLVDYTKEDKTFFGAFLL
3. TL1W100 (His-TEV-TL1A S176L) (ligand, also called TL1W100 (S176L)) HHHHHHENLYFQGLKGQEFAPSHQQVYAPLRADGDKPRAHLTVVRQTPTQHFKNQFPALHWEHELGLAFTKNRMNYTNKFLLIPESGDYFIYSQVTFRGMTSECSEIRQAGRPNKPDLITVVITKVTDSYPEPTQLLMGTKSVCEVGSNWFQPIYLGAMFSLQEGDKLMVNVSDISLVDYTKEDKTFFGAFLL
4. TL1W120 (His-TEV-TL1A S206K) (ligand, also called TL1W120 (S206K)) HHHHHHENLYFQGLKGQEFAPSHQQVYAPLRADGDKPRAHLTVVRQTPTQHFKNQFPALHWEHELGLAFTKNRMNYTNKFLLIPESGDYFIYSQVTFRGMTSECSEIRQAGRPNKPDSITVVITKVTDSYPEPTQLLMGTKSVCEVGKNWFQPIYLGAMFSLQEGDKLMVNVSDISLVDYTKEDKTFFGAFLL
5. TL1W47 (His-TEV-TL1A E241A) (ligand, also called TL1W47 (E241A)) HHHHHHENLYFQGLKGQEFAPSHQQVYAPLRADGDKPRAHLTVVRQTPTQHFKNQFPALHWEHELGLAFTKNRMNYTNKFLLIPESGDYFIYSQVTFRGMTSECSEIRQAGRPNKPDSITVVITKVTDSYPEPTQLLMGTKSVCEVGSNWFQPIYLGAMFSLQEGDKLMVNVSDISLVDYTKADKTFFGAFLL

Outgoing:
1: 7.46; 2: 7.65; 3: 6.49; 4: 6.94; 5: 6.59
